Source: the RNAGym collection of RNA variant scans (doi:10.1126/science.aae0568)

B1: tRNA (parent)
chain: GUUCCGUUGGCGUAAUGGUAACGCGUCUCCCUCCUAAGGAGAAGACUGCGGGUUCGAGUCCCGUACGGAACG

variants of: B1; experiment: yeast fitness relative to wild type (ratio to wild type); higher = fitter; tRNA-Arg(CCU), competitive growth, 37 C, YPD
Variants at the floor of the assay were thinned out.
Property: yeast fitness

Consider the worked cases shown below.
>>> assay_result("C11A A21C U28A C55U C62U G67C")
"≤ 0.5"
>>> assay_result("A15C A45G")
0.583

Req: Give its yeast fitness value. Item: U3A A14G G23C C49G
Resp: 0.503

Req: Note, next up: A14C C24U U26A G52C
Resp: ≤ 0.5

Req: Note, next up: C5U G17C U26G A69U
Resp: ≤ 0.5

Req: Note, next up: A21C C29U A57C
Resp: 0.558

Req: Note, next up: U35A A45C G68U
Resp: ≤ 0.5

Req: Note, next up: C4U A20U U35A G38A
Resp: ≤ 0.5

Req: Note, next up: C22G C30A C66A
Resp: ≤ 0.5

Req: Note, next up: C27A A45U C60G G63A A65U C66U
Resp: ≤ 0.5

Req: Note, next up: C5U A45C G63C
Resp: ≤ 0.5

Req: Note, next up: G6A C11U C49G C62U
Resp: ≤ 0.5

Req: Note, next up: A36C C46U
Resp: 0.577
